Reported AC50 values are given for each entry in this list.
Target: human PAH with the R408W mutation (Homo sapiens, UniProt P00439, R408W)
Construct: expressed in transfected cells
Sequence (P00439 whole entry R408W): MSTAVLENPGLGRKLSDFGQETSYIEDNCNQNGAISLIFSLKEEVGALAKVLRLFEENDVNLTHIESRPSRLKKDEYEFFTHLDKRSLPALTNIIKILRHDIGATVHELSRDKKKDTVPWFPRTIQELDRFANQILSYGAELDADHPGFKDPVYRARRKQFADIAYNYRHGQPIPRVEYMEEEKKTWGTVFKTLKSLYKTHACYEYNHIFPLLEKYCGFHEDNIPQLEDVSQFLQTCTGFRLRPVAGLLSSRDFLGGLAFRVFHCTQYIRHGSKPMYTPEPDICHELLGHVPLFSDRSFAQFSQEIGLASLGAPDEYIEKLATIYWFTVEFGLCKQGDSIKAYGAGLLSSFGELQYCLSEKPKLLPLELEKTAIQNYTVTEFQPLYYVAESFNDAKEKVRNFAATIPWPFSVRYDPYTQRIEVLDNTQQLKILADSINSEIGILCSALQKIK
Assay: Cell Based Phenylalanine Flux Assay
Conditions: A375 R408W cells, 24 hrs with compound, then 20 μM sepiapterin and 800 μM 13C9,15N-Phenylalanine for 4 hours; 13C-Tyrosine by LC-MS; average where tested multiple times; read-out: AC50

Input: Look up AC50: CC(C)(O)c1ncc(C(=O)N2CCc3[nH]cnc3C2c2ccc3ccccc3n2)o1 (stereo not drawn)
Output: 1 to 5 µM

Input: Again, but for O=C(CCc1cncs1)N1CCc2[nH]cnc2C1c1cn2ccccc2n1 (stereo not drawn)
Output: > 5 µM

Input: Again, but for O=C(C1CN(c2ccccn2)C1)N1CCc2[nH]cnc2C1c1ccc2ccccc2n1 (stereo not drawn)
Output: > 5 µM

Input: Again, but for O=C(c1nnc(-c2ncccn2)o1)N1CCc2[nH]cnc2C1c1ncc2ccccc2n1 (stereo not drawn)
Output: 1 to 5 µM

Input: Again, but for O=C(c1nnc(-c2ccc(C(F)(F)F)cc2)o1)N1CCc2[nH]cnc2C1c1ccc2ccccc2n1 (stereo not drawn)
Output: > 5 µM

Input: Again, but for O=C(c1nnc(C2CC2)o1)N1CCc2[nH]cnc2C1c1cc2ccccc2nn1 (stereo not drawn)
Output: 1 to 5 µM

Input: Again, but for Cc1nc(C2(O)CC2)oc1C(=O)N1CCc2[nH]cnc2C1c1ccc2ccccc2n1 (stereo not drawn)
Output: 1 to 5 µM

Input: Again, but for COCc1nnc(C(=O)N2CCc3[nH]cnc3C2c2ccc3ccccc3n2)o1 (stereo not drawn)
Output: 1 to 5 µM

Continuing:
Input: Look up AC50: CC(C)(F)c1ccc2c(C(=O)N3CCc4[nH]cnc4C3c3ccc4ccccc4n3)cnn2c1 (stereo not drawn)
Output: > 5 µM

Input: Again, but for O=C(C1CC1(F)F)N1CCc2[nH]cnc2C1c1ccc2ccccc2n1 (stereo not drawn)
Output: 1 to 5 µM

Input: Again, but for Cc1nc(CCN(C)C)oc1C(=O)N1CCc2[nH]cnc2C1c1ccc2ccccc2n1 (stereo not drawn)
Output: 1 to 5 µM
